- experimental_system: recombinant human MASP2 active protease (amino acids 297-686, C-terminal His Tag) (human, UniProt O00187 297-686)
- Sequence (O00187 other isoform, or with tags, fused parts or gaps limits assumed): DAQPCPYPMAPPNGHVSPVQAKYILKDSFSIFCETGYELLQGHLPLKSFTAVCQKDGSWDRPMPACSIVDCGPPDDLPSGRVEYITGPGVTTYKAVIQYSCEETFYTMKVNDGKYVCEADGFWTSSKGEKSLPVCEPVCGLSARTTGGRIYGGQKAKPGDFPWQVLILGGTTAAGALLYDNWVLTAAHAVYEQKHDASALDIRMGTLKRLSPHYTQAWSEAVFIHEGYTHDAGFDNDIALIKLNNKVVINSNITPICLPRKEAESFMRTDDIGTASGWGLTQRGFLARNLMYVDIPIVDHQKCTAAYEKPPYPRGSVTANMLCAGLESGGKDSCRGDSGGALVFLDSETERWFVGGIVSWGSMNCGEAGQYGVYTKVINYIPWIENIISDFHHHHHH
- test_summary: cell-based or functional assay
Bridge positions count the residues as written; N and C are the ends. Square brackets hold non-standard residues; d marks the D form. Primed or numbered codes have the meaning given here. * marks the point of attachment. Tranexamic″ = tranexamic acid, NC[C@H]1CC[C@@H](C(=O)*)CC1; PEG8 = NCCOCCOCCOCCOCCOCCOCCOCCOCCC(=O)O; tBuAla = CC(C)(C)C[C@H](N)C(=O)O; Pen = CC(C)(S)[C@H](N)C(=O)O
observed_property: human MASP2 IC50 (µM)
Answers are plain numbers, in µM.

IN: Item under review: {Tranexamic″}-ICSRS[tBuAla]PPI[Pen]IP-{PEG8-NH2} (disulfide 2-10; SMILES CC[C@H](C)[C@@H]1NC(=O)[C@@H]2CCCN2C(=O)[C@@H]2CCCN2C(=O)[C@H](CC(C)(C)C)NC(=O)[C@H](CO)NC(=O)[C@H](CCCNC(=N)N)NC(=O)[C@H](CO)NC(=O)[C@@H](NC(=O)[C@@H](NC(=O)[C@H]2CC[C@@H](CN)CC2)[C@@H](C)CC)CSSC(C)(C)[C@@H](C(=O)N[C@H](C(=O)N2CCC[C@H]2C(=O)NCCOCCOCCOCCOCCOCCOCCOCCOCCC(N)=O)[C@@H](C)CC)NC1=O) [Example 427: (Tranexamic)-IC+SRS-((tBu)A)-PPI-(Pen)+IP-(PEG8(28 atoms))-NH2] . Reported human MASP2 IC50?
OUT: 0.015
